PROTOCOL DESCRIPTION: self-splicing fitness, log relative to wild type (ln ratio); higher = more splicing; Tetrahymena group I intron in knt gene, E. coli kanamycin selection, DiMSum; sequences stand for … in CUCUCU…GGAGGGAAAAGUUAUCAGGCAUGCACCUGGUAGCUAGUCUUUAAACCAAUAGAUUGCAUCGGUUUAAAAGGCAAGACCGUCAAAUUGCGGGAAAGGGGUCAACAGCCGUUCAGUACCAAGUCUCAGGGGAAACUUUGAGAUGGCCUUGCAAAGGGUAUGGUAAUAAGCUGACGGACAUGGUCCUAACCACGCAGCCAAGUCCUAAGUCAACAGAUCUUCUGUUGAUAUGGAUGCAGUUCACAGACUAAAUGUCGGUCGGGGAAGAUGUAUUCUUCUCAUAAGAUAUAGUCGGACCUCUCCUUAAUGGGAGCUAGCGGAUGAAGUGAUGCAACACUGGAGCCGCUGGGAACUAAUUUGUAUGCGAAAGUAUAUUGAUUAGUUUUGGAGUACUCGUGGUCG;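 note: selection with 25 µg/mL kanamycin versus none on LB agar overnight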
EXPERIMENTAL CONDITIONS: 30 °C
Criterion: self-splicing fitness (ln) meeting or surpassing -3. Met: criterion met. Not met: criterion not met.

For this sequence, is measured self-splicing fitness (ln) -3 or higher? CGAAAGCAAUAUUACGCGAC
criterion met

For this sequence, is measured self-splicing fitness (ln) -3 or higher? ACCUAGCAAUAUUACGUAGU
criterion met

For this sequence, is measured self-splicing fitness (ln) -3 or higher? CGCAAGCAAUAUUACGCAUC
criterion met

For this sequence, is measured self-splicing fitness (ln) -3 or higher? CGCCAGCAAUAUUACGUAUC
criterion not met

For this sequence, is measured self-splicing fitness (ln) -3 or higher? AUCCAGCAAUAUUACGAUUC
criterion met

For this sequence, is measured self-splicing fitness (ln) -3 or higher? CUACAGCAAUAUUACGACAU
criterion not met

For this sequence, is measured self-splicing fitness (ln) -3 or higher? CUAGAGCAAUAUUACGUUCA
criterion not met

For this sequence, is measured self-splicing fitness (ln) -3 or higher? GAAGAGCAAUAUUACGCGGU
criterion met

For this sequence, is measured self-splicing fitness (ln) -3 or higher? UCCCAGCAAUAUUACGUUAC
criterion not met

For this sequence, is measured self-splicing fitness (ln) -3 or higher? CAGAAGCAAUAUUACGCACU
criterion met

For this sequence, is measured self-splicing fitness (ln) -3 or higher? AUGAAGCAAUAUUACGACAG
criterion met

For this sequence, is measured self-splicing fitness (ln) -3 or higher? GAAUAGCAAUAUUACGAGCU
criterion met

For this sequence, is measured self-splicing fitness (ln) -3 or higher? AGCCAGCAAUAUUACGGGGC
criterion not met

For this sequence, is measured self-splicing fitness (ln) -3 or higher? AAAUAGCAAUAUUACGGGUU
criterion met

For this sequence, is measured self-splicing fitness (ln) -3 or higher? AAGGAGCAAUAUUACGCGUA
criterion not met

----------
Record form. Attribute: self-splicing fitness (ln). Fill in for each entry.
PROTOCOL DESCRIPTION: self-splicing fitness, log relative to wild type (ln ratio); higher = more splicing; Tetrahymena group I intron in knt gene, E. coli kanamycin selection, DiMSum; sequences stand for … in CUCUCU…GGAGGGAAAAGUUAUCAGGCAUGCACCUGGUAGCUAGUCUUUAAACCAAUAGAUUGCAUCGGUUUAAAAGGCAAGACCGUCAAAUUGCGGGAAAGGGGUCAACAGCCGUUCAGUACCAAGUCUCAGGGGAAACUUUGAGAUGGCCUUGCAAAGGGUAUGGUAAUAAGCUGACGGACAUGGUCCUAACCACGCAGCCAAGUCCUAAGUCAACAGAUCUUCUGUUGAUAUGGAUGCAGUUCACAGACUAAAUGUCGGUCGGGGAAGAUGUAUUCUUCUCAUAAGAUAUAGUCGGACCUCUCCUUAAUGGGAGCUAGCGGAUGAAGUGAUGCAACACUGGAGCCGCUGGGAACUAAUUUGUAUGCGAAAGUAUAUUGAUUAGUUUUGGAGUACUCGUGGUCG
EXPERIMENTAL CONDITIONS: 37 °C
// no unit string in output, number only

Name the reported self-splicing fitness (ln) value associated with the sequence UCAUAGCAAUAUUACGAUGU
-0.735

Name the reported self-splicing fitness (ln) value associated with the sequence GUUCAGCAAUAUUACGCUAC
-2.67

Name the reported self-splicing fitness (ln) value associated with the sequence CAACAGCAAUAUUACGGGAG
-1.03

Name the reported self-splicing fitness (ln) value associated with the sequence AGAUAGCAAUAUUACGUAGG
-1.41

Name the reported self-splicing fitness (ln) value associated with the sequence GGUGAGCAAUAUUACGUGAC
-0.938

Name the reported self-splicing fitness (ln) value associated with the sequence AUUCAGCAAUAUUACGAGUG
-1.02

Name the reported self-splicing fitness (ln) value associated with the sequence AUGAAGCAAUAUUACGAGCA
-0.299

Name the reported self-splicing fitness (ln) value associated with the sequence CUCGAGCAAUAUUACGUAAU
-1.42

Name the reported self-splicing fitness (ln) value associated with the sequence UGCUAGCAAUAUUACGCAUA
-1.37

Name the reported self-splicing fitness (ln) value associated with the sequence UUAAAGCAAUAUUACGUGGA
-0.864

Name the reported self-splicing fitness (ln) value associated with the sequence GAAAAGCAAUAUUACGUCAC
-1.64

Name the reported self-splicing fitness (ln) value associated with the sequence UAGAAGCAAUAUUACGCCUU
-1.38

Name the reported self-splicing fitness (ln) value associated with the sequence AUAUAGCAAUAUUACGCAAA
-1.69

Name the reported self-splicing fitness (ln) value associated with the sequence GUUGAGCAAUAUUACGGGUU
-2

Name the reported self-splicing fitness (ln) value associated with the sequence ACCUAGCAAUAUUACGGUUU
-0.482

Name the reported self-splicing fitness (ln) value associated with the sequence ACGUAGCAAUAUUACGAGUU
-1.3

Name the reported self-splicing fitness (ln) value associated with the sequence AGGAAGCAAUAUUACGCAUC
-1.85

Name the reported self-splicing fitness (ln) value associated with the sequence AGAUAGCAAUAUUACGUGAG
-0.685

Name the reported self-splicing fitness (ln) value associated with the sequence GGCAAGCAAUAUUACGAAGC
-0.628

Name the reported self-splicing fitness (ln) value associated with the sequence ACGCAGCAAUAUUACGGUAG
-2.94

Name the reported self-splicing fitness (ln) value associated with the sequence ACCUAGCAAUAUUACGGUAU
-1.44

Name the reported self-splicing fitness (ln) value associated with the sequence UACAAGCAAUAUUACGAGCU
-1.58

Name the reported self-splicing fitness (ln) value associated with the sequence CUACAGCAAUAUUACGUAAU
-2.84

Name the reported self-splicing fitness (ln) value associated with the sequence AUUAAGCAAUAUUACGUCAG
-1.85

Name the reported self-splicing fitness (ln) value associated with the sequence CAUAAGCAAUAUUACGCUUG
-3.01

Name the reported self-splicing fitness (ln) value associated with the sequence AGCCAGCAAUAUUACGCGAU
-2.93

Name the reported self-splicing fitness (ln) value associated with the sequence CUCCAGCAAUAUUACGCACG
-1.12

Name the reported self-splicing fitness (ln) value associated with the sequence ACAGAGCAAUAUUACGCGUU
-1.16

Name the reported self-splicing fitness (ln) value associated with the sequence CUCUAGCAAUAUUACGGAAG
-1.34

Name the reported self-splicing fitness (ln) value associated with the sequence ACCCAGCAAUAUUACGUUCG
-1.26

Name the reported self-splicing fitness (ln) value associated with the sequence GCAUAGCAAUAUUACGUCGA
-0.979

Name the reported self-splicing fitness (ln) value associated with the sequence CCAGAGCAAUAUUACGCAGG
-2.53

Name the reported self-splicing fitness (ln) value associated with the sequence GCAAAGCAAUAUUACGCCGU
-2.46

Name the reported self-splicing fitness (ln) value associated with the sequence GUCUAGCAAUAUUACGACAU
-0.146

Source of measurements: the supplement of paper PMC7877785
